Target: T1, human CTLA4 (CTLA-4), full-length, on CHO cells (human, UniProt P16410 36-223)
T1 construct: also called huCTLA4
T1 sequence (P16410 36-223): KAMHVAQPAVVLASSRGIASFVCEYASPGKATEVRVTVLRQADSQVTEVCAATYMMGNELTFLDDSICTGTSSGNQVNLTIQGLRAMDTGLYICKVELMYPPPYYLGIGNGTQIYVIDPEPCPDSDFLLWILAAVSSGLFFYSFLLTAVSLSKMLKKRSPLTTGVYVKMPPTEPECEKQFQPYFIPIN
Experiment: flow cytometry, CHO/CTLA4 cells; MFI relative to WT CD80 ECD-Fc
# reported Fold change to WT CD80; entries follow
Just the number in fold, nothing appended.

Observe how each entry below is paired with its result.
1. variant CD80 IgV-Fc D46V/L85Q (Fc fusion, not shown: small tags and cut ends; a dimerising Fc or GST) VIHVTKEVKEVATLSCGHNVSVEELAQTRIYWQKEKKMVLTMMSGVMNIWPEYKNRTIFDITNNLSIVILALRPSDEGTYECVVQKYEKDAFKREHLAEVTLSVKAD: 1
2. variant CD80 IgV-Fc E35D/M47L/V68M/L85Q (Fc fusion, not shown: small tags and cut ends; a dimerising Fc or GST) VIHVTKEVKEVATLSCGHNVSVEELAQTRIYWQKDKKMVLTMMSGDLNIWPEYKNRTIFDITNNLSIMILALRPSDEGTYECVVQKYEKDAFKREHLAEVTLSVKAD: 0.7
3. variant CD80 IgV-Fc D46V/M47L/L85Q (Fc fusion, not shown: small tags and cut ends; a dimerising Fc or GST) VIHVTKEVKEVATLSCGHNVSVEELAQTRIYWQKEKKMVLTMMSGVLNIWPEYKNRTIFDITNNLSIVILALRPSDEGTYECVVQKYEKDAFKREHLAEVTLSVKAD: 1

Let's switch to this binder now.
Ask | Requested read-out: Fold change to WT CD80. Entry: variant CD80 IgV-Fc E35D/M47L/V68M (Fc fusion, not shown: small tags and cut ends; a dimerising Fc or GST) VIHVTKEVKEVATLSCGHNVSVEELAQTRIYWQKDKKMVLTMMSGDLNIWPEYKNRTIFDITNNLSIMILALRPSDEGTYECVVLKYEKDAFKREHLAEVTLSVKAD
Reply | 0.7
